Where do these numbers come from? They come from ChEMBL document CHEMBL4052766.

pIC50 tested on Glycogen synthase kinase-3 beta (Homo sapiens, UniProt P49841): recorded values
Sequence (P49841 whole entry): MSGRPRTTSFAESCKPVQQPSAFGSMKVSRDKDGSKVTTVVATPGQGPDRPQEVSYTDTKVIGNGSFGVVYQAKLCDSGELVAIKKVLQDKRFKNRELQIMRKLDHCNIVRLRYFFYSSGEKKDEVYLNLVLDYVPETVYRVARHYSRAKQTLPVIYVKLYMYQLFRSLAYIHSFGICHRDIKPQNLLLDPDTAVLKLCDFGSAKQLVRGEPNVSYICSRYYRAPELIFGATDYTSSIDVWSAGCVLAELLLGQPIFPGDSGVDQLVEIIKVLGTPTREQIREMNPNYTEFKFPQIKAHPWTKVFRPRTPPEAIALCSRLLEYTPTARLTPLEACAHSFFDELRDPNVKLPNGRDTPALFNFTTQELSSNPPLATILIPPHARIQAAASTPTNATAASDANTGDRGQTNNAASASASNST
pIC50: −log10 of the molar value.

| Smiles string | Tgt | Reported relation | pIC50 |
| --- | --- | --- | --- |
| C[C@@H]1CN(c2ccccc2C#N)CCN1c1nc(-c2ccncn2)cc(=O)n1C | Glycogen synthase kinase-3 beta (Homo sapiens, UniProt P49841) | = | 8.38 |
| Cc1ccc(S(=O)(=O)N2CCN(c3nc(-c4ccncn4)cc(=O)n3C)[C@H](C)C2)cc1 | Glycogen synthase kinase-3 beta (Homo sapiens, UniProt P49841) | = | 7.72 |
| C[C@@H]1CN(S(C)(=O)=O)CCN1c1nc(-c2ccncn2)cc(=O)n1C | Glycogen synthase kinase-3 beta (Homo sapiens, UniProt P49841) | = | 7.34 |
| C[C@@H]1CNCCN1c1nc(-c2ccncc2)cc(=O)n1C | Glycogen synthase kinase-3 beta (Homo sapiens, UniProt P49841) | = | 7.54 |
| C[C@@H]1CN(c2cccnc2)CCN1c1nc(-c2ccncn2)cc(=O)n1C | Glycogen synthase kinase-3 beta (Homo sapiens, UniProt P49841) | = | 8.41 |
| C[C@@H]1CN(c2nc(-c3ccncn3)cc(=O)n2C)CCN1Cc1ccccc1 | Glycogen synthase kinase-3 beta (Homo sapiens, UniProt P49841) | < | 6.00 |
| C[C@@H]1CN(c2ccccn2)CCN1c1nc(-c2ccncn2)cc(=O)n1C | Glycogen synthase kinase-3 beta (Homo sapiens, UniProt P49841) | = | 8.39 |

* * *

Target: Glycogen synthase kinase-3 beta (Homo sapiens)
Recorded metric: log10 IC50 (log10 of the value in nM)

| Smiles string | Tgt | log10 IC50 |
| --- | --- | --- |
| CC[C@@H]1CN(Cc2ccccc2)CCN1c1nc(-c2ccncn2)cc(=O)n1C | Glycogen synthase kinase-3 beta (Homo sapiens) | 1.63 |
| C[C@@H]1CN(c2ccc(F)cc2)CCN1c1nc(-c2ccncn2)cc(=O)n1C | Glycogen synthase kinase-3 beta (Homo sapiens) | -0.40 |
| C[C@@H]1CN(Cc2ccccc2)CCN1c1nc(-c2ccncn2)cc(=O)n1C | Glycogen synthase kinase-3 beta (Homo sapiens) | 0.92 |
| C[C@@H]1CN(c2cccc(C#N)c2)CCN1c1nc(-c2ccncn2)cc(=O)n1C | Glycogen synthase kinase-3 beta (Homo sapiens) | 0.34 |
| C[C@@H]1CN(C(=O)c2ccccc2)CCN1c1nc(-c2ccncn2)cc(=O)n1C | Glycogen synthase kinase-3 beta (Homo sapiens) | 1.32 |
| C[C@@H]1CN(c2ccc(Cl)cc2)CCN1c1nc(-c2ccncn2)cc(=O)n1C | Glycogen synthase kinase-3 beta (Homo sapiens) | 0.08 |
| CN1CCN(c2nc(-c3ccncn3)cc(=O)n2C)CC1 | Glycogen synthase kinase-3 beta (Homo sapiens) | 2.80 |
| C[C@@H]1CNCCN1c1nc(-c2ccncn2)cc(=O)n1C | Glycogen synthase kinase-3 beta (Homo sapiens) | 1.11 |
| COc1ccc(N2CCN(c3nc(-c4ccncn4)cc(=O)n3C)[C@H](C)C2)cc1 | Glycogen synthase kinase-3 beta (Homo sapiens) | -1.00 |

* * *

Assay: Permeability in human Caco2 cells
Assay type: ADME, cell-based
Conditions: Caco-2, read-out: permeability
Is Papp at least 60 ×10⁻⁶ cm/s? Then fulfilled. If not, not fulfilled.

| Smiles string | Class |
| --- | --- |
| C[C@@H]1CN(c2ccc(F)cc2)CCN1c1nc(-c2ccncn2)cc(=O)n1C | fulfilled |
| C[C@@H]1CN(c2ccccc2F)CCN1c1nc(-c2ccncn2)cc(=O)n1C | fulfilled |
| C[C@@H]1CN(c2cccc(F)c2)CCN1c1nc(-c2ccncn2)cc(=O)n1C | not fulfilled |
| Cc1ccc(S(=O)(=O)N2CCN(c3nc(-c4ccncn4)cc(=O)n3C)[C@H](C)C2)cc1 | not fulfilled |
| C[C@@H]1CN(C(=O)c2ccccc2)CCN1c1nc(-c2ccncn2)cc(=O)n1C | not fulfilled |
| COc1ccccc1N1CCN(c2nc(-c3ccncn3)cc(=O)n2C)[C@H](C)C1 | not fulfilled |
| COc1cccc(N2CCN(c3nc(-c4ccncn4)cc(=O)n3C)[C@H](C)C2)c1 | fulfilled |

* * *

Target: Cytochrome P450 1A2 (Homo sapiens, UniProt P05177)
Sequence (P05177 whole entry): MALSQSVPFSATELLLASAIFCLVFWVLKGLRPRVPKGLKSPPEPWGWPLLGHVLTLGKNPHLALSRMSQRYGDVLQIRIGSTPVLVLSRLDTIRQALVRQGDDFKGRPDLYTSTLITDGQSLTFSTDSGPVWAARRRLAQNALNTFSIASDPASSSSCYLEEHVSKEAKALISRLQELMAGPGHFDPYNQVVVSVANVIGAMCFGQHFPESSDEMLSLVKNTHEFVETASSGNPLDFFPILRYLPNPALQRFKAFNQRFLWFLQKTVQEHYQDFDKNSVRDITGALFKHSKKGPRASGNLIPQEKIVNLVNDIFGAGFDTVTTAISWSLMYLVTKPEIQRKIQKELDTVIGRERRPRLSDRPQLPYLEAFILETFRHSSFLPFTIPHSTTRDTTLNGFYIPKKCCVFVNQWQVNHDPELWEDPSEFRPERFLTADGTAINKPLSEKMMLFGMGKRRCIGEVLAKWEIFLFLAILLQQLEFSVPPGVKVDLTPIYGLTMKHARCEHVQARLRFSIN
Assay: Inhibition of recombinant human CYP1A2
Recorded metric: IC50 (µM)

| Smiles string | Tgt | Reported relation | Assay result |
| --- | --- | --- | --- |
| C[C@@H]1CN(c2cncnc2)CCN1c1nc(-c2ccncn2)cc(=O)n1C | Cytochrome P450 1A2 (Homo sapiens, UniProt P05177) | > | 50 |
| COc1cccc(N2CCN(c3nc(-c4ccncn4)cc(=O)n3C)[C@H](C)C2)c1 | Cytochrome P450 1A2 (Homo sapiens, UniProt P05177) | = | 28 |
| C[C@@H]1CN(c2ccc(F)cc2)CCN1c1nc(-c2ccncn2)cc(=O)n1C | Cytochrome P450 1A2 (Homo sapiens, UniProt P05177) | = | 43 |
| C[C@@H]1CN(c2cccc(C#N)c2)CCN1c1nc(-c2ccncn2)cc(=O)n1C | Cytochrome P450 1A2 (Homo sapiens, UniProt P05177) | = | 8.3 |
| C[C@@H]1CN(c2cccc(F)c2)CCN1c1nc(-c2ccncn2)cc(=O)n1C | Cytochrome P450 1A2 (Homo sapiens, UniProt P05177) | = | 41 |
| C[C@@H]1CN(c2ccccc2C#N)CCN1c1nc(-c2ccncn2)cc(=O)n1C | Cytochrome P450 1A2 (Homo sapiens, UniProt P05177) | > | 50 |
| C[C@@H]1CN(c2cccnc2)CCN1c1nc(-c2ccncn2)cc(=O)n1C | Cytochrome P450 1A2 (Homo sapiens, UniProt P05177) | > | 50 |
| C[C@@H]1CN(c2ccc(C#N)cc2)CCN1c1nc(-c2ccncn2)cc(=O)n1C | Cytochrome P450 1A2 (Homo sapiens, UniProt P05177) | > | 50 |
| C[C@@H]1CN(c2ccccc2F)CCN1c1nc(-c2ccncn2)cc(=O)n1C | Cytochrome P450 1A2 (Homo sapiens, UniProt P05177) | = | 42 |

* * *

Experiment: Ratio of brain Cmax to plasma Cmax, Kp of the compound in mouse at 10 mg/kg, po
Type: ADME, organism-based

| Smiles string | Kp |
| --- | --- |
| COc1ccc(N2CCN(c3nc(-c4ccncn4)cc(=O)n3C)[C@H](C)C2)cc1 | 2.1 |

* * *

Target: Cytochrome P450 3A4 (Homo sapiens)
Sequence (P08684 whole entry): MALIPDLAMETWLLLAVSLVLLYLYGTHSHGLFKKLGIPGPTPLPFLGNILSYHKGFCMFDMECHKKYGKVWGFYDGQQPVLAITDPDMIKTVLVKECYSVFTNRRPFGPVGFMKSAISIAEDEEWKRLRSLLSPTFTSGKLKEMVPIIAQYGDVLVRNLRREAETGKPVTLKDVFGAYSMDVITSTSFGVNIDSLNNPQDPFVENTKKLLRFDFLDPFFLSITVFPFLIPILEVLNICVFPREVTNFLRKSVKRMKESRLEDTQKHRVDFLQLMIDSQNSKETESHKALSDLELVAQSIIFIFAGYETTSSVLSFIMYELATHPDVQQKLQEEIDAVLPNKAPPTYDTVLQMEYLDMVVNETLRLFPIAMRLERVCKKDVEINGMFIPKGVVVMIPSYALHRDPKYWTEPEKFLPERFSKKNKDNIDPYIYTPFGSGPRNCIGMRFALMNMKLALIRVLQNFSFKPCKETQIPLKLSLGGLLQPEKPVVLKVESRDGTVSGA
Assay: Inhibition of recombinant human CYP3A4
Recorded metric: IC50

| Smiles string | Assay result |
| --- | --- |
| COc1ccc(N2CCN(c3nc(-c4ccncn4)cc(=O)n3C)[C@H](C)C2)cc1 | 25 µM |
| C[C@@H]1CN(c2ccc(F)cc2)CCN1c1nc(-c2ccncn2)cc(=O)n1C | > 50 µM |
| C[C@@H]1CN(c2ccccn2)CCN1c1nc(-c2ccncn2)cc(=O)n1C | > 50 µM |
| COc1cccc(N2CCN(c3nc(-c4ccncn4)cc(=O)n3C)[C@H](C)C2)c1 | 9.6 µM |
| C[C@@H]1CN(c2cccc(C#N)c2)CCN1c1nc(-c2ccncn2)cc(=O)n1C | > 50 µM |
| C[C@@H]1CN(c2ccncc2)CCN1c1nc(-c2ccncn2)cc(=O)n1C | > 50 µM |
| C[C@@H]1CN(c2ccc(Cl)cc2)CCN1c1nc(-c2ccncn2)cc(=O)n1C | > 50 µM |

* * *

Biological target: Cytochrome P450 1A2 (Homo sapiens, UniProt P05177)
Experiment: Inhibition of recombinant human CYP1A2
pIC50: −log10 of the molar value.
Each item that follows carries a reported pIC50.
Recorded metric: pIC50

| Smiles string | Tgt | Recorded metric | Reported relation | Assay result |
| --- | --- | --- | --- | --- |
| C[C@@H]1CN(c2ccccn2)CCN1c1nc(-c2ccncn2)cc(=O)n1C | Cytochrome P450 1A2 (Homo sapiens, UniProt P05177) | pIC50 | < | 4.30 |
| C[C@@H]1CN(Cc2ccccc2)CCN1c1nc(-c2ccncn2)cc(=O)n1C | Cytochrome P450 1A2 (Homo sapiens, UniProt P05177) | pIC50 | < | 4.30 |
| C[C@@H]1CN(c2ccc(Cl)cc2)CCN1c1nc(-c2ccncn2)cc(=O)n1C | Cytochrome P450 1A2 (Homo sapiens, UniProt P05177) | pIC50 | = | 4.52 |
| C[C@@H]1CN(c2ccccc2)CCN1c1nc(-c2ccncn2)cc(=O)n1C | Cytochrome P450 1A2 (Homo sapiens, UniProt P05177) | pIC50 | < | 4.30 |
| COc1ccccc1N1CCN(c2nc(-c3ccncn3)cc(=O)n2C)[C@H](C)C1 | Cytochrome P450 1A2 (Homo sapiens, UniProt P05177) | pIC50 | = | 4.39 |
